Measured log10 of IC50 accompanies every entry in the list below.
# tested_target: Cannabinoid-1 receptor (CB1R) (Rattus norvegicus, UniProt P20272)
# Construct: The tissue obtained from the brain of SD rats was homogenized; from tissue; host or cells: brain of SD rats (membrane pellet of the homogenate)
# Sequence (P20272 whole entry): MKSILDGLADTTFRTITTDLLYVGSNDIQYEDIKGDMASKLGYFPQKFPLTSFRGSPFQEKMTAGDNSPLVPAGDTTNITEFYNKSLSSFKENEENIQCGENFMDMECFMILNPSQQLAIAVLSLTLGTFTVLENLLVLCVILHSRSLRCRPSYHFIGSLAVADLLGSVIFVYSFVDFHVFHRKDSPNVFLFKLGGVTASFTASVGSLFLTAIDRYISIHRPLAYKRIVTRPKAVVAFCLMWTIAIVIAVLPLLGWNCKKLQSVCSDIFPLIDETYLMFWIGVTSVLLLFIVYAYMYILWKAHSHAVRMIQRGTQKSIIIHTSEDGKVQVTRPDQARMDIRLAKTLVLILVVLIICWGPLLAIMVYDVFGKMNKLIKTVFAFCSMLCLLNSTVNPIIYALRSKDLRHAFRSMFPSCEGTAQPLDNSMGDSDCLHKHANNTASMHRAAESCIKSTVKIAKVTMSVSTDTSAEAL
# procedure_text: Cannabinoid-1 receptor (CB1R) binding affinity assay ([3H]CP-55940, rat CB-1 receptor binding protocol)
# study_conditions: brain tissue of SD rats, [3H]CP-55940, 30° C. 60 min; read-out: IC50
Heads up: the numbers are on a log10 scale; they represent IC50 in nM.

# count of solved cases: 3
{"columns": ["compound", "test_value"],
 "data": [
  ["Cc1c(-c2nnc(C3(c4ccc(Cl)cc4)CCC3)o2)nn(-c2ccccc2Br)c1-c1ccc(Cl)cc1 [Example 159]", 0.88],
  ["CCc1c(-c2nnc(C3(C(F)(F)F)CC3)s2)nn(-c2ccc(Cl)cc2Cl)c1-c1ccc(Cl)cc1 [Example 500]", 1.37],
  ["Cc1c(-c2nnc(C3(c4ccc(F)cc4)CC3)o2)nn(-c2ccc(Cl)cc2Cl)c1-c1ccc(Cl)cc1 [Example 274]", 1.09]
]}

From here, focus on the item given below.
Lab note: Cc1c(-c2nnc(C3(c4ccccc4)CC3)s2)nn(-c2ccc(Cl)cc2Cl)c1-c1ccc(Cl)cc1 [Example 487] gave log10 of IC50 of 0.98
